Consider the following molecules; for each one, report its cAMP production activity (%).
- tested_system: human PTH1 receptor (Homo sapiens, UniProt Q03431)
- protocol_notes: In vitro cAMP signal activity in HKRK-B7 cells (LLC-PK1 cells overexpressing the human PTH1 receptor)
- Type: cell-based
- condition_summary: HKRK-B7 cells; compound at 1×10^−3 M; cAMP produced as percentage of that produced by hPTH(1-34) at 100 nM
One number for each entry, in %.

{"columns": ["molecule", "cAMP production activity (%)"],
 "data": [
  ["Cc1cc(C(=O)N2CCCN2)cc(C)c1CCS(=O)(=O)N1CCC2(CC1)N=C(C1CCC(CCC(F)(F)F)CC1)NC2=O (stereo not shown)", 92]
]}

Record cAMP production activity (%) for all entries; do not skip any.
1. O=C(CNc1ccc(/C=C/S(=O)(=O)N2CCC3(CC2)N=C(C2CCCCC2)NC3=O)c(C(F)(F)F)c1)NCCO
2. Cc1cc(OCCC(O)CO)cc(C)c1CCS(=O)(=O)N1CCC2(CC1)N=C(c1ccc(F)c(C(F)(F)F)c1)NC2=O (stereo not shown)
3. Cc1cc(N2CCOCC2=O)cc(C)c1/C=C/S(=O)(=O)N1CCC2(CC1)N=C(C1CCC(C)CC1)NC2=O (stereo not shown)
4. Cc1cc(N(C)C(N)=O)cc(C)c1CCS(=O)(=O)N1CCC2(CC1)N=C(CCCCCCCCCc1ccccc1)NC2=O

Given back:
66
103
113
95

// for each molecule below, give its cAMP production activity (%)
1. CC(=O)N(CCO)c1ccc(CCS(=O)(=O)N2CCC3(CC2)N=C(c2cccc(OC(F)(F)F)c2)NC3=O)c(C)c1
2. Cc1cc(C(=O)N2CCC(O)(CF)CC2)cc(C)c1/C=C/S(=O)(=O)N1CCC2(CC1)N=C(c1ccc(OCCCC(F)(F)C(F)(F)F)c(C(F)(F)F)c1)NC2=O

Given back:
1: 56; 2: 72

----------
- tested_system: human PTH1 receptor (Homo sapiens, UniProt Q03431)
- Sequence (Q03431 27-593): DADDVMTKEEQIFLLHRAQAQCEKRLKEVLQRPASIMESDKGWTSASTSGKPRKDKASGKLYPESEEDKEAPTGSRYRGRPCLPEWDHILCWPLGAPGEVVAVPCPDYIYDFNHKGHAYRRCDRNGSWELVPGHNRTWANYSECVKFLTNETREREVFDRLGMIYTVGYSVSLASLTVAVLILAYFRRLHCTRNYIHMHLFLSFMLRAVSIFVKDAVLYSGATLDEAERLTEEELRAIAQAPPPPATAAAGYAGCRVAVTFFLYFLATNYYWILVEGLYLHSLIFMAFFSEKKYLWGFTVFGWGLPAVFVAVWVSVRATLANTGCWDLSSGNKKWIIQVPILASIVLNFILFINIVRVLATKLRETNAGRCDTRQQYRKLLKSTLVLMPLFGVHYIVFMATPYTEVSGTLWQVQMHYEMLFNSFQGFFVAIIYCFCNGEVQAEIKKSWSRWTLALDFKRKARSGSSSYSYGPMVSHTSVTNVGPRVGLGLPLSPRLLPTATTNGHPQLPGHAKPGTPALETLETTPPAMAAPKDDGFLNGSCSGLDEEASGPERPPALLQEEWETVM
- protocol_notes: In vitro cAMP signal activity in HKRK-B7 cells (LLC-PK1 cells overexpressing the human PTH1 receptor)
- Format: cell-based
- condition_summary: HKRK-B7 cells; compound at 1×10^−3 M; cAMP produced as percentage of that produced by hPTH(1-34) at 100 nM
Task for the reader: assign each of the following molecules its reported cAMP production activity (%).
Give bare numbers, in %.

{"columns": ["compound_string", "cAMP production activity (%)"],
 "data": [
  ["Cc1cc(C(=O)N2CCC(CCO)CC2)ccc1CCS(=O)(=O)N1CCC2(CC1)N=C(c1cccc(C(F)(F)F)c1)NC2=O", 78],
  ["Cc1cc(N(C)C(N)=O)cc(C)c1/C=C/S(=O)(=O)N1CCC2(CC1)N=C(c1ccc(OCCCC(F)(F)F)cc1)NC2=O", 81],
  ["Cc1cc(S(C)(=O)=O)ccc1/C=C/S(=O)(=O)N1CCC2(CC1)N=C(c1cccc(C(F)(F)F)c1)NC2=O", 28],
  ["Cc1cc(C(=O)N2CCC[C@H]2CO)ccc1CCS(=O)(=O)N1CCC2(CC1)N=C(c1cccc(C(F)(F)F)c1)NC2=O", 78],
  ["Cl.[2H]C([2H])([2H])Nc1cc(C)c(/C=C/S(=O)(=O)N2CCC3(CC2)N=C(c2ccc(F)c(C(F)(F)F)c2)NC3=O)c(C)c1", 54],
  ["Cc1cccc(C2=NC3(CCN(S(=O)(=O)CCc4ccc(C(=O)N(C)C)cc4C)CC3)C(=O)N2)c1", 51]
]}

Asked: Send back human PTH1 receptor (Homo sapiens, UniProt Q03431) cAMP production activity (%) of Cc1cc(N(C)C(N)=O)cc(C)c1CCS(=O)(=O)N1CCC2(CC1)N=C(C1CCC(C)(C)CC1)NC2=O only.
Given back: 97

----------
- tested_system: human PTH1 receptor (Homo sapiens, UniProt Q03431)
- protocol_notes: In vitro cAMP signal activity in HKRK-B7 cells (LLC-PK1 cells overexpressing the human PTH1 receptor)
- Type: cell-based
- condition_summary: HKRK-B7 cells; compound at 1×10^−3 M; cAMP produced as percentage of that produced by hPTH(1-34) at 100 nM
Provide the recorded cAMP production activity (%) for the entries that follow.

Observe how each entry below is paired with its result.
{"columns": ["compound", "cAMP production activity (%)"],
 "data": [
  ["CC(=O)N1CCN(C(=O)c2cc(C)c(/C=C/S(=O)(=O)N3CCC4(CC3)N=C(c3cccc(OC(F)(F)F)c3)NC4=O)c(C)c2)CC1", "59%"],
  ["Cc1cc(C(=O)N2CCCC2)ccc1/C=C/S(=O)(=O)N1CCC2(CC1)N=C(c1cccc(C(F)(F)F)c1)NC2=O", "59%"],
  ["[2H]C([2H])([2H])C([2H])([2H])Oc1ccc(C2=NC3(CCN(S(=O)(=O)/C=C/c4c(C)cc(C(=O)N5CCC(C)(O)CC5)cc4C)CC3)C(=O)N2)cc1C(F)(F)F", "75%"],
  ["CC(=O)Nc1ccc(CCS(=O)(=O)N2CCC3(CC2)N=C(C2CCC(CC(F)(F)C(F)(F)F)CC2)NC3=O)c(C)c1 (stereo not shown)", "81%"],
  ["Cc1cc(N2C(=O)CNC2=O)ccc1CCS(=O)(=O)N1CCC2(CC1)N=C(c1cccc(OC(F)(F)F)c1)NC2=O", "110%"],
  ["Cc1cc(NCC(=O)N2CCN(C)CC2)ccc1CCS(=O)(=O)N1CCC2(CC1)N=C(c1cccc(OC(F)(F)F)c1)NC2=O", "68%"]
]}

Here's the next entry for you.
Asked: Tell us which cAMP production activity (%) value is on record for CCc1cc(NC(C)=O)ccc1CCS(=O)(=O)N1CCC2(CC1)N=C(C1CCC(C)CC1)NC2=O (stereo not shown)
Given back: 79%

----------
- tested_system: human PTH1 receptor (Homo sapiens, UniProt Q03431)
- protocol_notes: In vitro cAMP signal activity in HKRK-B7 cells (LLC-PK1 cells overexpressing the human PTH1 receptor)
- Assay type: cell-based
- condition_summary: HKRK-B7 cells; compound at 1×10^−3 M; cAMP produced as percentage of that produced by hPTH(1-34) at 100 nM
observation_type: cAMP production activity (%)
Answers are plain numbers, in %.

Here are 5 molecules together with their reported answers.
{"columns": ["molecule", "tested_system", "endpoint_unit", "cAMP production activity (%)"],
 "data": [
  ["CC(C)N(CCNC(=O)Cc1ccc(/C=C/S(=O)(=O)N2CCC3(CC2)N=C(C2CCCCC2)NC3=O)cc1)C(C)C", "human PTH1 receptor (Homo sapiens, UniProt Q03431)", "%", 39],
  ["CC(=O)Nc1ccc(CCS(=O)(=O)N2CCC3(CC2)N=C(C2CCC(C(F)(F)F)CC2)NC3=O)c(C)c1 (stereo not shown)", "human PTH1 receptor (Homo sapiens, UniProt Q03431)", "%", 69],
  ["Cc1cc(N2CCN(CCO)C2=O)ccc1CCS(=O)(=O)N1CCC2(CC1)N=C(c1cccc(C(F)(F)F)c1)NC2=O", "human PTH1 receptor (Homo sapiens, UniProt Q03431)", "%", 68],
  ["CCc1cccc(NS(=O)(=O)N2CCC3(CC2)N=C(C2CCCCC2)NC3=O)c1", "human PTH1 receptor (Homo sapiens, UniProt Q03431)", "%", 28],
  ["Cc1cc(N(C2CCC(O)CC2)S(C)(=O)=O)cc(C)c1/C=C/S(=O)(=O)N1CCC2(CC1)N=C(c1cccc(OC(F)(F)F)c1)NC2=O (stereo not shown)", "human PTH1 receptor (Homo sapiens, UniProt Q03431)", "%", 20]
]}

Consider the following items and state reported cAMP production activity (%) for each.
1. Cc1cc(N(C)C(N)=O)cc(C)c1CCS(=O)(=O)N1CCC2(CC1)N=C(CCCCCCCCCCCN)NC2=O
2. Cc1cc(C(=O)N2CCC(C)(O)CC2)cc(C)c1/C=C/S(=O)(=O)N1CCC2(CC1)N=C(C1CCC(CCC(F)(F)F)CC1)NC2=O (stereo not shown)

Given back:
[103, 86]
